study-target: CLK2 kinase (Homo sapiens, UniProt P49760)
Sequence (P49760 whole entry): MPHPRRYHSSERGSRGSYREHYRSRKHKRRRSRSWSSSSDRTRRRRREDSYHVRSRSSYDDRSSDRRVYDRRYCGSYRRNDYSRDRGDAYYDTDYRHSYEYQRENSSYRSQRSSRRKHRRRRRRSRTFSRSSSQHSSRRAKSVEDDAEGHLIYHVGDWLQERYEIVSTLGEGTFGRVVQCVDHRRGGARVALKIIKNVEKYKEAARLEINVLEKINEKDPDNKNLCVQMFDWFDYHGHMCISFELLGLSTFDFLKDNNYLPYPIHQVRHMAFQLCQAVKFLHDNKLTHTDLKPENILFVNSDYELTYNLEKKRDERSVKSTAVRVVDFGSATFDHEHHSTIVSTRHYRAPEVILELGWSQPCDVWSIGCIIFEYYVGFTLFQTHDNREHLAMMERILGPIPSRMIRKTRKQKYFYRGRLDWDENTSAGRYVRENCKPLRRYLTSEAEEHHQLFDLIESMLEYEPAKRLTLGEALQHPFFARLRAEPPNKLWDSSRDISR
test-summary: CLK2 kinase activity assay (Z-lyte FRET);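 note: FRET read-out as coumarin to fluorescein emission ratio, unphosphorylated peptide as 0% and phosphorylated peptide as 100% controls, duplicate reactions, non-linear regression fit of dose-response curves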
experimental-conditions: Z-lyte Ser/Thr 6 peptide, 60 μM ATP, 1 h at room temperature
Sorting guide: entries reporting EC50 beneath 3 nM go in the Met pile, the rest go in the Not met pile.

[[record]]
record_smiles = "CN1CCCCN(C)c2nccc3[nH]c(nc23)-c2n[nH]c3ccc(cc23)-c2cncc(c2)C1"
study_target = "CLK2 kinase (Homo sapiens, UniProt P49760)"
assigned_label = "Met"


Ask: Check if EC50 falls below 3 nM for `CCCC(=O)Nc1cncc(-c2ccc3[nH]nc(-c4nc5c(-c6ccsc6)ccnc5[nH]4)c3c2)c1` .
Reply: Not met

Ask: Check if EC50 falls below 3 nM for `CN1CCN(c2nccc3[nH]c(-c4n[nH]c5cnc(-c6cncc(NC(=O)C7CCCCC7)c6)cc45)cc23)CC1` .
Reply: Not met

----------
Tested on: primary human mesenchymal stem cells (hMSCs)
test-summary: Chondrogenesis screening using primary human mesenchymal stem cells
Assay type: cell-based
experimental-conditions: Homo sapiens, Mesenchymal stem cells, hMSC chondrogenesis; concentration required to induce 50% levels of chondrogenesis with TGF-β3 as positive control; read-out: Conc (nM) of 50% TGF-β3 activity
Sorting guide: entries reporting EC50 beneath 30 nM go in the label 1 pile, the rest go in the label 0 pile.

Check out these entries, answers already filled in.
[[record]]
record_smiles = "Nc1cncc(-c2cc3c(-c4cc5c(-c6ccncc6)cncc5[nH]4)n[nH]c3cn2)c1"
assigned_label = "label 1"

[[record]]
record_smiles = "CC(C)CC(=O)Nc1cncc(-c2ccc3[nH]nc(-c4nc5c(-c6cc(F)cc(CNS(C)(=O)=O)c6)cncc5[nH]4)c3c2)c1"
assigned_label = "label 0"

[[record]]
record_smiles = "CN1CCN(c2ccnc3[nH]c(-c4n[nH]c5ccc(-c6cn[nH]c6)nc45)cc23)CC1"
assigned_label = "label 0"

[[record]]
record_smiles = "CC(C)CC(=O)Nc1cncc(-c2cc3c(-c4cc5c(-c6cccs6)nccc5[nH]4)n[nH]c3cn2)c1"
assigned_label = "label 1"

[[record]]
record_smiles = "O=C(Nc1ccnc(C(F)(F)F)c1)c1n[nH]c2ccc(-c3cncc(CN4CCCCC4)c3)cc12"
assigned_label = "label 0"


Ask: Check if EC50 falls below 30 nM for `COc1cncc(C(=O)Nc2c[nH]nc2C(=O)Nc2ccc(N3CCC(F)(F)C3)nc2)c1` .
Reply: label 0

Ask: Check if EC50 falls below 30 nM for `c1cncc(-c2ccc3[nH]nc(-c4nc5c(-c6cccnc6)ccnc5[nH]4)c3n2)c1` .
Reply: label 0

Ask: Check if EC50 falls below 30 nM for `c1cncc(-c2ccc3[nH]nc(-c4nc5c(-c6ccoc6)cncc5[nH]4)c3c2)c1` .
Reply: label 0

Ask: Check if EC50 falls below 30 nM for `CN(C)CCOc1cncc(-c2ccc3[nH]nc(-c4nc5c(-c6cccs6)cccc5[nH]4)c3n2)c1` .
Reply: label 1

Ask: Check if EC50 falls below 30 nM for `Oc1cncc(-c2ccc3[nH]nc(-c4nc5c(-c6cccc(F)c6)nccc5[nH]4)c3n2)c1` .
Reply: label 1

Ask: Check if EC50 falls below 30 nM for `CC(C)Nc1cncc(-c2ccc3[nH]nc(-c4nc5c(-c6cccnc6)ccnc5[nH]4)c3n2)c1` .
Reply: label 1

Ask: Check if EC50 falls below 30 nM for `O=C(Nc1cncc(-c2cnc3[nH]nc(-c4cc5c(-c6cccs6)nccc5[nH]4)c3c2)c1)C1CCC1` .
Reply: label 0

Ask: Check if EC50 falls below 30 nM for `CN(C)c1cncc(-c2ccc3[nH]nc(-c4nc5c(-c6cccs6)cncc5[nH]4)c3n2)c1` .
Reply: label 1

----------
EC50: recorded values
study-target: UniProtKB P49760
test-summary: CLK2 kinase activity assay (Z-lyte FRET)
experimental-conditions: Z-lyte Ser/Thr 6 peptide, 60 μM ATP, 1 h at room temperature
Value expressed in nM; do not type the unit.

The following compounds have reported results that may help.
[[record]]
compound = "Oc1cncc(-c2ccc3[nH]nc(-c4nc5c(-c6cccc(F)c6)cccc5[nH]4)c3c2)c1 [compound 143]"
study_target = "UniProtKB P49760"
observable = "EC50"
reported = 17

[[record]]
compound = "O=C(Cc1ccccc1)Nc1cncc(-c2ccc3[nH]nc(-c4cc5cnccc5[nH]4)c3c2)c1 [compound 434]"
study_target = "UniProtKB P49760"
observable = "EC50"
reported = 5

[[record]]
compound = "CC(C)CC(=O)Nc1cncc(-c2cnc3[nH]nc(-c4nc5c(-c6cccc(F)c6)cncc5[nH]4)c3c2)c1 [compound 125]"
study_target = "UniProtKB P49760"
observable = "EC50"
reported = 1

[[record]]
compound = "O=C(Nc1c[nH]nc1C(=O)Nc1ccc(N2CCCCC2)nc1)c1cncc(OC2CCNCC2)c1 [compound 13]"
study_target = "UniProtKB P49760"
observable = "EC50"
reported = 14

[[record]]
compound = "CNC(=O)c1ccc(C(=O)Nc2cc3cc(-c4cn(C)nn4)ccc3cn2)cn1 [compound 577]"
study_target = "UniProtKB P49760"
observable = "EC50"
reported = 3

[[record]]
compound = "CCC(=O)Nc1cncc(-c2ccc3[nH]nc(-c4nc5c(-c6cccc(F)c6)ccnc5[nH]4)c3n2)c1 [compound 121]"
study_target = "UniProtKB P49760"
observable = "EC50"
reported = 3


Turning to the following compound.
compound CN1CCN(c2cncc3[nH]c(-c4n[nH]c5ccc(-c6cncc(N7CCOCC7)c6)cc45)nc23)CC1 [compound 218] , EC50 observed: 1

----------
study-target: CLK3 kinase (Homo sapiens, UniProt P49761)
Sequence (P49761 whole entry): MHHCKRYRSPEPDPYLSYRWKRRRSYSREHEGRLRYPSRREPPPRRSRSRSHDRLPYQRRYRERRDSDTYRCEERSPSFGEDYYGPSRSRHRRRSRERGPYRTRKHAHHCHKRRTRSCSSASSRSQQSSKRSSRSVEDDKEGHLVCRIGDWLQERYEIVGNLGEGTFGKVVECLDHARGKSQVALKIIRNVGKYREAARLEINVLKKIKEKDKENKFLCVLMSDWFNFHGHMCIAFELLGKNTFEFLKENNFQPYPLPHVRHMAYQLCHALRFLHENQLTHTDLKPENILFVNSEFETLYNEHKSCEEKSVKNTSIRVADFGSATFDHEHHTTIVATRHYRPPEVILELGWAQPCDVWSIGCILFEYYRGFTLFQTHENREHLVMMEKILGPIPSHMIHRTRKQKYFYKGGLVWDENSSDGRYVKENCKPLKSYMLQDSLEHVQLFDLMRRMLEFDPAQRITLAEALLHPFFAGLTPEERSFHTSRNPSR
test-summary: CLK3 kinase activity assay (Z-lyte FRET);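 note: kinase activity read as coumarin/fluorescein emission ratio by FRET, unphosphorylated peptide as 0% and phosphorylated peptide as 100% control, values from non-linear regression of dose-response curves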
experimental-conditions: Z-lyte Ser/Thr 18 peptide, 156 μM ATP, 1 h at room temperature
observable: EC50 (nM)
Value expressed in nM; do not type the unit.

The following molecules have reported results that may help.
[[record]]
record_smiles = "CC(C)Nc1cncc(-c2ccc3[nH]nc(-c4nc5c(-c6cccnc6)ccnc5[nH]4)c3n2)c1"
reported = 280

[[record]]
record_smiles = "CCC(=O)Nc1cncc(-c2ccc3[nH]nc(-c4nc5c(-c6ccsc6)cncc5[nH]4)c3c2)c1"
reported = 64

[[record]]
record_smiles = "O=C(Nc1cccnc1)c1n[nH]c2ccc(-c3cncc(NC(=O)N4CCOCC4)c3)cc12"
reported = 47

[[record]]
record_smiles = "CN1CCN(c2nccc3[nH]c(-c4n[nH]c5ccc(-c6cncc(NC(=O)c7ccccc7)c6)cc45)cc23)CC1"
reported = 291

[[record]]
record_smiles = "c1ncc(-c2ccc3[nH]nc(-c4cc5c(-c6ccoc6)nccc5[nH]4)c3c2)cn1"
reported = 217

[[record]]
record_smiles = "FC1(F)CCN(Cc2cncc(-c3ccc4[nH]nc(-c5cc6c(N7CCCCC7)ccnc6[nH]5)c4n3)c2)C1"
reported = 166


molecule `O=C(Nc1ccnc(C(F)(F)F)c1)c1n[nH]c2ccc(-c3cncc(CN4CCCCC4)c3)cc12` , EC50 observed: 93

----------
study-target: CLK3 kinase (Homo sapiens)
test-summary: CLK3 kinase activity assay (Z-lyte FRET)
experimental-conditions: Z-lyte Ser/Thr 18 peptide, 156 μM ATP, 1 h at room temperature
observable: EC50 (nM)
Value expressed in nM; do not type the unit.

The following compounds have reported results that may help.
[[record]]
compound = "Cn1ncc(-c2ccc3cnc(NC(=O)C4CCN(C(=O)c5ccccc5)CC4)cc3c2)c1CN1CCCCC1 [compound 571]"
unit_abbreviation = "nM"
reported = 318

[[record]]
compound = "CN(C)CCNc1cc(C(=O)Nc2cc3cc(-c4cnn(C)c4)ccc3cn2)ccn1 [compound 543]"
unit_abbreviation = "nM"
reported = 60

[[record]]
compound = "CN(C)Cc1cncc(-c2cc3c(-c4cc5c(-c6ccncc6)cncc5[nH]4)n[nH]c3cn2)c1 [compound 399]"
unit_abbreviation = "nM"
reported = 188


Turning to the following compound.
compound COc1ccc(NC(=O)c2n[nH]c3ccc(-c4cncc(CN5CCC(F)(F)C5)c4)cc23)cn1 [compound 72] , EC50 observed: 22

----------
study-target: CLK3 kinase (Homo sapiens)
test-summary: CLK3 kinase activity assay (Z-lyte FRET)
experimental-conditions: Z-lyte Ser/Thr 18 peptide, 156 μM ATP, 1 h at room temperature
pEC50: recorded values
pEC50 field: float, defined as -log10 of concentration (mol/L).

The following molecules have reported results that may help.
[[record]]
molecule = "COc1cncc(-c2ccc3[nH]nc(-c4nc5c(-c6cccc(F)c6)cncc5[nH]4)c3n2)c1"
study_target = "CLK3 kinase (Homo sapiens)"
reported = 7.19

[[record]]
molecule = "CCC(=O)Nc1cncc(-c2ccc3[nH]nc(-c4cc5c(-c6cccc(F)c6)cncc5[nH]4)c3c2)c1"
study_target = "CLK3 kinase (Homo sapiens)"
reported = 7.07

[[record]]
molecule = "Cn1ncc(-c2ccc3cnc(NC(=O)c4ccc(OC(F)F)cc4)cc3c2)c1CO"
study_target = "CLK3 kinase (Homo sapiens)"
reported = 6.58

[[record]]
molecule = "CN1CCCn2cc(nn2)-c2nccc3[nH]c(nc23)-c2n[nH]c3ccc(cc23)-c2cncc(c2)C1"
study_target = "CLK3 kinase (Homo sapiens)"
reported = 7.59

[[record]]
molecule = "CN1CCC(Nc2ccc(NC(=O)c3n[nH]c4cc(F)c(-c5cnn(C)c5)cc34)cn2)CC1"
study_target = "CLK3 kinase (Homo sapiens)"
reported = 7.10


Sample Fc1cccc(-c2cncc3[nH]c(-c4n[nH]c5ccc(-c6cncc(CN7CCC(F)(F)C7)c6)cc45)nc23)c1 [compound 141] , system: CLK3 kinase (Homo sapiens). Its pEC50 is 7.48

Sample `CC(C)(C)C(=O)Nc1cncc(-c2cnc3[nH]nc(-c4cc5c(-c6ccncc6)cncc5[nH]4)c3c2)c1` , system: CLK3 kinase (Homo sapiens). Its pEC50 is 7.21
